system: BDF1 mice, P288 leukemia ip, survival T/C; assay: NCI In Vivo Anticancer Drug Screen. Data for tumor model P288 Lymphocytic Leukemia (intraperitoneal) in B6D2F1 (BDF1) mice; settings: endpoint: survival time, mean or median; dose: 25.0 mg/kg/injection; schedule: Q01DX010 (ip); vehicle: saline; higher = longer survival
Inconclusive results and toxic doses are left out.
Would you mind telling me the reported T/C of each entry?

Give the measured T/C of CS(=O)(=O)OCC(O)C(O)C(O)C(O)COS(C)(=O)=O (configuration not stated) .
100 % of control

Give the measured T/C of COS(C)(=O)=O .
100 % of control

Give the measured T/C of CN(C)/N=N/c1nc[nH]c1C(N)=O .
100 % of control

Give the measured T/C of O=C1C(NC(=O)C2CCCCC2)=C(N2CC2)C(=O)C(NC(=O)C2CCCCC2)=C1N1CC1 .
100 % of control

Give the measured T/C of Nc1c(I)cc(I)cc1C(=O)O .
100 % of control

Give the measured T/C of CC(=O)Nc1ccc2nc3ccc(NC(C)=O)cc3[n+](-c3ccccc3)c2c1 .
112 % of control

Give the measured T/C of O=[n+]1c2c(n([O-])c3ccccc31)-c1cccc3cccc-2c13 .
88 % of control

Give the measured T/C of Cc1cc2nc3c(=O)[nH]c(=O)nc-3n(CC(O)C(O)C(O)C(O)CO)c2cc1C (configuration not stated) .
100 % of control

Give the measured T/C of [I][Hg][CH2]C1COC([CH2][Hg][I])CO1 (configuration not stated) .
100 % of control

Give the measured T/C of CSc1ncnc2nc[nH]c12 .
90 % of control

Give the measured T/C of COc1cc(-c2ccc(Nc3ccccc3C(=O)O)c(OC)c2)ccc1Nc1ccccc1C(=O)O .
116 % of control

Give the measured T/C of CCN(CC)CCNc1ccc(C)c2sc3ccccc3c(=O)c12 .
110 % of control

---

system: BDF1 mice, P288 leukemia ip, survival T/C; assay: NCI In Vivo Anticancer Drug Screen. Data for tumor model P288 Lymphocytic Leukemia (intraperitoneal) in B6D2F1 (BDF1) mice; conditions: endpoint: survival time, mean or median; dose: 5.0 mg/kg/injection; schedule: Q01DX Z (ip); vehicle: carboxymethylcellulose (CMC)
Toxic doses and inconclusive results are not listed. Rule for the calls: active = survival T/C of 150% or more; inactive = T/C below 125% in these data.
# output must be one of active, inactive

Assay outcome for NC(Cc1ccc(N(CCCl)CCCl)cc1)C(=O)O (centres undefined) : what was it?
inactive

Assay outcome for O=c1cn[nH]c(=O)[nH]1 : what was it?
inactive

Assay outcome for COC12C(COC(N)=O)C3=C(C(=O)C(C)=C(N)C3=O)N1CC1C2N1C (centres undefined) : what was it?
active

Assay outcome for CC(CCC(C)OS(C)(=O)=O)OS(C)(=O)=O (centres undefined) : what was it?
inactive

---

Would you mind telling me the reported T/C of each entry?
test system: BDF1 mice, P288 leukemia ip, survival T/C; assay: NCI In Vivo Anticancer Drug Screen. Data for tumor model P288 Lymphocytic Leukemia (intraperitoneal) in B6D2F1 (BDF1) mice; conditions: endpoint: survival time, mean or median; dose: 62.5 mg/kg/injection; schedule: Q01DX Z (ip); vehicle: carboxymethylcellulose (CMC); higher = longer survival
Toxic doses and inconclusive results are not listed.

# query: T/C | item OCC1OC(n2cnc3c(=S)nc[nH]c32)C(O)C1O (stereo unspecified) | system: BDF1 mice, P288 leukemia ip, survival T/C
109 % of control

# query: T/C | item O=CN(O)CC(=O)O | system: BDF1 mice, P288 leukemia ip, survival T/C
104 % of control

# query: T/C | item CCOC(=O)NP(=O)(N1CC1(C)C)N1CC1(C)C (stereo unspecified) | system: BDF1 mice, P288 leukemia ip, survival T/C
112 % of control

# query: T/C | item O=CCC(O)C(O)C(O)CO (stereo unspecified) | system: BDF1 mice, P288 leukemia ip, survival T/C
113 % of control

# query: T/C | item OCC1OC(n2cnc3c(Cl)ncnc32)C(O)C1O (stereo unspecified) | system: BDF1 mice, P288 leukemia ip, survival T/C
104 % of control

# query: T/C | item CCn1cnc2c(=S)nc[nH]c21 | system: BDF1 mice, P288 leukemia ip, survival T/C
93 % of control
